Data provenance: PubChem BioAssay (NCI)

Test system: IGROV1 ovarian
measurement protocol: NCI tumour cell line growth inhibition, 48 h

given smiles	TGI
CCOc1ccc2c(-c3ccnc(Nc4cc(OC)cc(C(F)(F)F)c4)n3)cnn2n1	> 25 µM
C=CC(=O)N1C/C(=C\c2ccc(Cl)c(Cl)c2)C(=O)/C(=C/c2ccc(Cl)c(Cl)c2)C1	0.263 µM
N#Cc1nc(-c2ccc(F)cc2)oc1S(=O)(=O)N1CCCCC1	3.5 µM
CCCCNNC(=O)c1ccc(Br)cc1	> 50 µM
Nc1ccc(-c2nc3ccccc3s2)cc1Cl	> 100 µM
N#CC(CCN1CCC(Nc2ccccc2)(c2nnnn2C2CCCCC2)CC1)(c1ccccc1)c1ccccc1	> 100 µM
C/C(=C\c1ccn(-c2ccccc2N)n1)[C@@H]1C[C@@H]2O[C@]2(C)CCC[C@H](C)[C@H](O)[C@@H](C)C(=O)C(C)(C)[C@@H](O)CC(=O)O1	> 50 µM
C[N+]1=c2c3cccc4cccc(c(=O)n2CC1)c43	60.5 µM

----------
Tested on: UACC-257 melanoma
measurement protocol: NCI tumour cell line growth inhibition, 48 h
*1 amine or outer side, *2 acyl side, *3 side chain or, on linkers, in order; H or OH if unused. Where a SMILES comes first, the peptide text is derived from it. Bridges are numbered along the chain shown (N, C = ends). Roman numbers before positions name the chains, in order. [ ]: non-standard residue; d: D form. Actinocin(9to1) = Cc1c2oc3c(C)ccc(C(=O)[*:1])c3nc-2c(C(=O)[*:2])c(N)c1=O; NMeV = CN[CH](C(=O)O)C(C)C; Sar = CNCC(=O)O

compound	target under test	TGI
O=C(c1ccccc1)c1ccc2nc(-c3c(Cl)c(Cl)c(Cl)c(Cl)c3-c3nnc(-c4ccccc4)o3)[nH]c2c1	UACC-257 melanoma	> 100 µM
C[C@@H]1[C@@H](C)C(c2ccccc2)O[Si]1(C(C)(C)C)C(C)(C)C (some centres not stated)	UACC-257 melanoma	37.5 µM
O=C(CCN1CCCC1)Nc1ccc2c(NCc3ccccc3)c3ccccc3nc2c1	UACC-257 melanoma	3.3 µM
NC(CCCC(N)P(=O)(O)O)C(=O)O (configuration not stated)	UACC-257 melanoma	> 100 µM
Cc1nc2cc(F)c(F)cc2[nH]c1=O	UACC-257 melanoma	> 100 µM
O=C1COc2cc(N3CCN(c4cccc(C(F)(F)F)c4)CC3)ccc2N1	UACC-257 melanoma	> 100 µM
Cc1c2oc3c(C)ccc(C(=O)NC4C(=O)NC(Cc5ccccc5)C(=O)N5CCCC5C(=O)N(C)CC(=O)N(C)C(C(C)C)C(=O)OC4C)c3nc-2c(C(=O)NC2C(=O)NC(Cc3ccccc3)C(=O)N3CCCC3C(=O)N(C)CC(=O)N(C)C(C(C)C)C(=O)OC2C)c(N)c1=O (configuration not stated) (I: TFP[Sar][NMeV] / II: TFP[Sar][NMeV]; ester I:1-I:C, II:1-II:C; linker I:N-II:N via Actinocin(9to1); configuration not given here)	UACC-257 melanoma	0.0577 µM
Cc1c(C(=O)C/C(=N/NC(=O)c2ccccc2)C(=O)Nc2ccc(Cl)cc2)[n+](=O)c2ccccc2n1[O-]	UACC-257 melanoma	> 100 µM
[2H]C([2H])([2H])NC(=O)c1nnc(NC(=O)C2CC2)cc1Nc1cccc(-c2ncn(C)n2)c1OC	UACC-257 melanoma	> 100 µM
Fc1ccc(-c2ncn(C3CCNCC3)c2-c2ccnc(Oc3ccc4c(c3)OCO4)n2)cc1	UACC-257 melanoma	> 25 µM
COc1cc2c3c(n(CCCN)c(=O)c2cc1OC)-c1ccc([N+](=O)[O-])cc1C3=O	UACC-257 melanoma	> 100 µM
O=C(NNC(=S)Nc1ccccc1)c1nsc2ccccc12	UACC-257 melanoma	> 100 µM
Cc1ccc(S(=O)(=O)N/N=C(\c2nc3ccc(Cl)cc3[nH]c2=O)C(O)c2ccco2)cc1 (configuration not stated)	UACC-257 melanoma	> 100 µM
CCOC(=O)C1CC(C(=O)c2ccccc2)N2c3ccccc3-c3ccccc3C12 (configuration not stated)	UACC-257 melanoma	> 100 µM
COC(=O)C1CC2(C)C=CC1N(C(=O)OCc1ccccc1)C2 (configuration not stated)	UACC-257 melanoma	> 100 µM
CC(C)(C)OC(=O)[C@@H]1CCC(=O)N1C1(c2ccccc2)c2ccccc2-c2ccccc21	UACC-257 melanoma	> 100 µM
Clc1sc(Cl)c2c1[C@@H](Cl)C[C@@H]2Cl	UACC-257 melanoma	> 100 µM
